# System: A549
# Protocol Details: Antiproliferative activity against human A549 cells assessed as inhibition of cell growth after 72 hrs by MTT-based assay
# Assay type: functional
# Reported Conditions: A549, 72 h
Metric: pIC50
API: returns pIC50 as number; meaning -log10 of concentration in mol/L.

What measured pIC50 goes with COc1ccc(-c2noc(CNCc3ccc(C(=O)Nc4ccccc4N)cc3)n2)cc1 ?
5.10

// returns reported pIC50 for input Nc1ccccc1NC(=O)c1ccc(CNC(=O)OCc2cccnc2)cc1
5.27

Field request: pIC50 | item: Nc1ccccc1NC(=O)c1ccc(CNCc2nc(-c3ccccc3)no2)cc1
4.97

Query (compound): Cc1ccc(-c2noc(CNCc3ccc(C(=O)Nc4ccccc4N)cc3)n2)cc1 ; field requested: pIC50
5.01

Fill in the blank: the reported pIC50 of Nc1ccccc1NC(=O)c1ccc(CNCc2nc(-c3ccc(F)cc3)no2)cc1 is ____.
4.97

If you can, please state the reported pIC50 value of Nc1ccccc1NC(=O)c1ccc(CNCc2nc(-c3ccc(Cl)cc3)no2)cc1 .
4.87

Name the reported pIC50 value associated with the compound Nc1ccccc1NC(=O)c1ccc(CNCc2nc(-c3ccc([N+](=O)[O-])cc3)no2)cc1
5.19

// query pIC50 value for entry Nc1ccccc1NC(=O)c1ccc(CNCc2nc(-c3ccccc3Cl)no2)cc1
5.10

Quick one: pIC50 of Nc1ccccc1NC(=O)c1ccc(CNCc2nc(-c3ccc(C(F)(F)F)cc3)no2)cc1 ?
4.00

The measured values listed here are drawn from ChEMBL document CHEMBL3421568.
